Provide the reported pIC50 of each item.
- methodSummary: inhibitors of NFkB activation in CF airway cells, SAR follow-up, KKLEB cells, panel, IL8 HTRF, NFkB-GFP (AID 651592);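 further: immortalized cystic fibrosis airway epithelial KKLEB cells with an NF-kB GFP reporter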
- conditionLabel: PAF/TNFa-induced NFkB-GFP / IL8 HTRF, CF-PAF assay, run 5
pIC50: −log10 of the molar value.

Consider the worked cases shown below.
chemicalString: CCOc1ccc(NCc2cc3c(C(C)(C)C)nn(-c4ccccc4)c3[nH]c2=O)cc1
pIC50: 4.89

chemicalString: O=C(Nc1ccc(N2CCN(C(=O)c3ccccc3Cl)CC2)cc1)c1ccncc1
pIC50: 4.95

chemicalString: O=C(Nc1ccc(N2CCN(C(=O)c3ccccc3Cl)CC2)cc1)c1cc(Br)cc(Br)c1
pIC50: < 4.18

For each of the molecules below, state pIC50.
1. O=C(Nc1ccc(N2CCN(C(=O)c3ccccc3F)CC2)cc1)c1cc(Br)cc(Br)c1
2. O=C(Nc1ccc(N2CCN(C(=O)c3ccccc3F)CC2)cc1)c1cccnc1
3. CCOc1ccc(NCc2cc3c(-c4ccc(OC)c(OC)c4)nn(-c4ccccc4)c3[nH]c2=O)cc1
4. Cc1ccc(CNCc2cc3c(C(C)(C)C)nn(-c4ccccc4)c3[nH]c2=O)cc1
5. O=C(Nc1ccc(N2CCN(C(=O)c3ccc(F)cc3)CC2)cc1)c1ccccn1
6. O=C(Nc1ccc(N2CCN(C(=O)c3ccccc3Cl)CC2)cc1)c1ccccc1
7. O=C(Nc1ccc(N2CCN(C(=O)c3ccccc3)CC2)cc1)c1cncc(Br)c1

1: < 4.18; 2: < 4.18; 3: 4.89; 4: < 4.18; 5: < 4.18; 6: > 5.00; 7: 5.35

For each of the molecules below, state pIC50.
1. O=C(Nc1ccc(N2CCN(C(=O)c3ccccc3Cl)CC2)cc1)c1cccc(Br)c1
2. O=C(Nc1ccc(N2CCN(C(=O)c3ccccc3)CC2)cc1)c1ccncc1
3. O=C(Nc1ccc(N2CCN(C(=O)c3ccccc3)CC2)cc1)c1cccnc1
4. O=C(Nc1ccc(N2CCN(C(=O)c3ccccc3F)CC2)cc1)c1ccccn1

1. < 4.18
2. < 4.18
3. < 4.18
4. < 4.18

For each of the molecules below, state pIC50.
1. CCOc1ccc(NCc2cc3c(-c4ccc(F)cc4)nn(-c4ccccc4)c3[nH]c2=O)cc1
2. O=C(Nc1ccc(N2CCN(C(=O)c3ccccc3F)CC2)cc1)c1ccncc1
3. O=C(Nc1ccc(N2CCN(C(=O)c3ccc(F)cc3)CC2)cc1)c1cccnc1
4. O=C(Nc1ccc(N2CCN(C(=O)c3ccc(F)cc3)CC2)cc1)c1ccncc1
5. O=C(Nc1ccc(N2CCN(C(=O)c3ccccc3Cl)CC2)cc1)c1cncc(Br)c1
6. Cc1ccc(NCc2cc3c(C(C)(C)C)nn(-c4ccccc4)c3[nH]c2=O)cc1
7. O=C(Nc1ccc(N2CCN(C(=O)c3ccccc3F)CC2)cc1)c1cccc(Br)c1
8. O=C(Nc1ccc(N2CCN(C(=O)c3ccccc3)CC2)cc1)c1ccccc1

[5.63, "< 4.18", "< 4.18", "< 4.18", 5.52, 4.87, "< 4.18", "< 4.18"]

# input molecule: O=C(Nc1ccc(N2CCN(C(=O)c3ccc(F)cc3)CC2)cc1)c1ccccc1 ; wanted: its pIC50
< 4.18

* * *

Provide the reported pIC50 of each item.
- assayedTarget: Interleukin-8 (Homo sapiens)
- methodSummary: inhibitors of NFkB activation in CF airway cells, SAR follow-up, KKLEB cells, panel, IL8 HTRF, NFkB-GFP (AID 651592)
- conditionLabel: PAF/TNFa-induced NFkB-GFP / IL8 HTRF, IL8, PAF-induced, run 5
pIC50: −log10 of the molar value.

chemicalString: O=C(Nc1ccc(N2CCN(C(=O)c3ccccc3F)CC2)cc1)c1cccnc1
pIC50: < 4.18

For each of the compounds below, state pIC50.
1. O=C(Nc1ccc(N2CCN(C(=O)c3ccc(F)cc3)CC2)cc1)c1ccccc1
2. O=C(Nc1ccc(N2CCN(C(=O)c3ccccc3)CC2)cc1)c1ccccc1

1. < 4.18
2. < 4.18

* * *

- methodSummary: inhibitors of NFkB activation in CF airway cells, SAR follow-up, KKLEB cells, panel, IL8 HTRF, NFkB-GFP (AID 651592)
- conditionLabel: PAF/TNFa-induced NFkB-GFP / IL8 HTRF, CF-PAF assay, run 6
pIC50: −log10 of the molar value.
observedProperty: pIC50

chemicalString: O=C(Nc1ccc(N2CCN(C(=O)c3ccccc3Cl)CC2)cc1)c1ccccc1
pIC50: > 5.00

chemicalString: O=C(Nc1ccc(N2CCN(C(=O)c3ccccc3)CC2)cc1)c1ccccc1
pIC50: < 4.18

# ---- query molecule ----
# input molecule: O=C(Nc1ccc(N2CCN(C(=O)c3ccccc3F)CC2)cc1)c1ccccn1 ; wanted: its pIC50
< 4.18

* * *

Provide the reported pIC50 of each item.
- assayedTarget: Interleukin-8 (Homo sapiens) (UniProt P10145)
- Sequence (P10145 whole entry, looked up): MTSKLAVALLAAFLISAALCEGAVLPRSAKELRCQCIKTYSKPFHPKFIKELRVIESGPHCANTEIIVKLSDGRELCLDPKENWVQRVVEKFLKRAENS
- methodSummary: inhibitors of NFkB activation in CF airway cells, SAR follow-up, KKLEB cells, panel, IL8 HTRF, NFkB-GFP (AID 651592);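 further: immortalized cystic fibrosis airway epithelial KKLEB cells with an NF-kB GFP reporter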
- conditionLabel: PAF/TNFa-induced NFkB-GFP / IL8 HTRF, IL8, PAF-induced, run 4
One number for each entry, as −log10 of the molar value.

chemicalString: CCOc1ccc(NCc2cc3c(C(C)(C)C)nn(-c4ccc(Cl)cc4)c3[nH]c2=O)cc1
observedProperty: pIC50
recordedNumber: 6.83

For each of the compounds below, state pIC50.
1. CCOc1ccc(NCc2cc3c(-c4ccc(OC)c(OC)c4)nn(-c4ccccc4)c3[nH]c2=O)cc1
2. O=C(Nc1ccc(N2CCN(C(=O)c3ccccc3Cl)CC2)cc1)c1ccncc1

[5.88, 5.94]

* * *

- methodSummary: inhibitors of NFkB activation in CF airway cells, SAR follow-up, KKLEB cells, panel, IL8 HTRF, NFkB-GFP (AID 651592);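 further: immortalized cystic fibrosis airway epithelial KKLEB cells with an NF-kB GFP reporter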
- conditionLabel: PAF/TNFa-induced NFkB-GFP / IL8 HTRF, CF-PAF assay, run 6
observedProperty: IC50

chemicalString: O=C(Nc1ccc(N2CCN(C(=O)c3ccccc3)CC2)cc1)c1cncc(Br)c1
IC50: 5.77 µM
//
chemicalString: O=C(Nc1ccc(N2CCN(C(=O)c3ccccc3F)CC2)cc1)c1cccc(Br)c1
IC50: > 66 µM
//
chemicalString: O=C(Nc1ccc(N2CCN(C(=O)c3ccccc3)CC2)cc1)c1cc(Br)cc(Br)c1
IC50: > 66 µM
//
chemicalString: O=C(Nc1ccc(N2CCN(C(=O)c3ccccc3)CC2)cc1)c1ccncc1
IC50: > 66 µM
//
chemicalString: CCOc1ccc(NCc2cc3c(-c4ccc(OC)c(OC)c4)nn(-c4ccccc4)c3[nH]c2=O)cc1
IC50: 16.3 µM

# ---- query compound ----
# input compound: O=C(Nc1ccc(N2CCN(C(=O)c3ccccc3F)CC2)cc1)c1ccccc1 ; wanted: its IC50
> 66 µM

* * *

- assayedTarget: Interleukin-8 (Homo sapiens) (UniProt P10145)
- methodSummary: inhibitors of NFkB activation in CF airway cells, SAR follow-up, KKLEB cells, panel, IL8 HTRF, NFkB-GFP (AID 651592);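 further: immortalized cystic fibrosis airway epithelial KKLEB cells with an NF-kB GFP reporter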
- conditionLabel: PAF/TNFa-induced NFkB-GFP / IL8 HTRF, IL8, PAF-induced, run 1
pIC50: −log10 of the molar value.
Provide the reported pIC50 of each item.

chemicalString: O=C(Nc1ccc(N2CCN(C(=O)c3ccc(F)cc3)CC2)cc1)c1ccccc1
pIC50: < 4.18
//
chemicalString: Cc1ccc(NCc2cc3c(C(C)(C)C)nn(-c4ccccc4)c3[nH]c2=O)cc1
pIC50: 5.57
//
chemicalString: O=C(Nc1ccc(N2CCN(C(=O)c3ccccc3F)CC2)cc1)c1ccccn1
pIC50: < 4.18
//
chemicalString: O=C(Nc1ccc(N2CCN(C(=O)c3ccccc3)CC2)cc1)c1cccnc1
pIC50: < 4.18

# ---- query molecule ----
# input molecule: O=C(Nc1ccc(N2CCN(C(=O)c3ccc(F)cc3)CC2)cc1)c1cccc(Br)c1 ; wanted: its pIC50
< 4.18
